SYSTEM NAME: D(4) dopamine receptor (Homo sapiens, UniProt P21917)
Sequence (P21917 whole entry, the tested form may be a part): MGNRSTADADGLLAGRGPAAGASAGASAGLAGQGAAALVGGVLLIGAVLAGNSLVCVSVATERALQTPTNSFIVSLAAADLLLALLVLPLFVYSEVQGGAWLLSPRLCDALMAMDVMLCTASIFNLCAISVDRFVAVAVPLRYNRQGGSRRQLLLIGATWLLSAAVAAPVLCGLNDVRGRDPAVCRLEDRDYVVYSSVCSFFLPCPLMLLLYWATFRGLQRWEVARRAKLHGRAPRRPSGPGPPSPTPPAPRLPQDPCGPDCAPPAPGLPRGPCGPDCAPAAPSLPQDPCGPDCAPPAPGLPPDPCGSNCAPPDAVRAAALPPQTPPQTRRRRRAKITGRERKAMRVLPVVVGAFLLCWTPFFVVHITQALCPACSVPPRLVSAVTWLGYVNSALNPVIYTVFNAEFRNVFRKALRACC
ASSAY METHOD TEXT: Antagonist activity at human SP/Myc epitope-tagged dopamine D4 receptor expressed in HEK293T cells assessed as inhibition of dopamine-induced mVenus-fused beta-arrestin2 recruitment preincubated for 15 mins followed by dopamine induction measured after 2 mins by BRET assay
Type: cell-based, HEK-293T
Reported IC50 values are given for each entry in this list.
Entry rule: numbers only, all in nM.

Task: # return recorded IC50 for input O=C1CCc2ccccc2N1CCCN1CCC(Cc2ccccc2)CC1
Output: 575

Task: Assign IC50 to the following record: O=C1CCc2ccccc2N1CCCN1CCC(CCCCCO)CC1
Output: 151

Task: Determine its reported IC50: CCCCC1CCN(CCCN2C(=O)CCc3ccccc32)CC1
Output: 6.03

Task: Please report IC50 for the following compound: O=C1CCc2ccccc2N1CCCN1CCN(c2ccccc2)CC1
Output: 0.724

* * *

ASSAY METHOD TEXT: Intrinsic clearance in mouse liver microsomes assessed per mg of protein at 0.5 uM preincubated for 30 mins followed by NADPH addition measured after 30 mins by HPLC-MS/MS method
Assay type: ADME, microsome
CONDITIONS: read-out: CLH
Reported microsomal CLint at 0.5 µM values for the following molecules.
Enter your answer as a number in µL/min/mg; do not include the unit.

CHEMICAL SMILES | READING UNIT | VALUE MEASURED
O=C1CCc2ccccc2N1CCCN1CCN(c2ccccc2)CC1 | µL/min/mg | 159

Now for a further molecule.
Task: Consider the molecule O=C1CCc2ccccc2N1CCCN1CCC(Cc2ccccc2)CC1 and give its recorded microsomal CLint at 0.5 µM.
Output: 396

* * *

SYSTEM NAME: D(3) dopamine receptor (Homo sapiens)
Sequence (P35462 whole entry): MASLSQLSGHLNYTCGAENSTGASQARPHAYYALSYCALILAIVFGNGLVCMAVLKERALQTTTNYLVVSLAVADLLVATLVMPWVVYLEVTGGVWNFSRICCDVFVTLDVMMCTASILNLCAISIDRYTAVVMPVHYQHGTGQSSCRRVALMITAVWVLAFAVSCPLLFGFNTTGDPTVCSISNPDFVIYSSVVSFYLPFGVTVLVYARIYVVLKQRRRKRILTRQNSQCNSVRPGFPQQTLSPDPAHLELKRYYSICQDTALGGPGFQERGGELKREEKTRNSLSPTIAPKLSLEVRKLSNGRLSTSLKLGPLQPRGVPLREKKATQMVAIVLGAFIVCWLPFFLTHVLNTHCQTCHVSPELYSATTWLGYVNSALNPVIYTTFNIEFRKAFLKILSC
MEASURE NAME: pKi
Convention used: pKi is expressed as -log10 of the molar concentration.

CHEMICAL SMILES | SYSTEM NAME | MEASURE NAME | VALUE MEASURED
CC1CCN(CCCN2C(=O)CCc3ccccc32)CC1 | D(3) dopamine receptor (Homo sapiens) | pKi | 5.43

Task: Note pKi for the compound shown: O=C1CCc2ccccc2N1CCCN1CCN(c2ccccc2)CC1
Output: 5.88

Task: Retrieve pKi measured for O=C1CCc2ccccc2N1CCCN1CCC(CCCO)CC1 and print it.
Output: 6.23

* * *

Sequence of the target: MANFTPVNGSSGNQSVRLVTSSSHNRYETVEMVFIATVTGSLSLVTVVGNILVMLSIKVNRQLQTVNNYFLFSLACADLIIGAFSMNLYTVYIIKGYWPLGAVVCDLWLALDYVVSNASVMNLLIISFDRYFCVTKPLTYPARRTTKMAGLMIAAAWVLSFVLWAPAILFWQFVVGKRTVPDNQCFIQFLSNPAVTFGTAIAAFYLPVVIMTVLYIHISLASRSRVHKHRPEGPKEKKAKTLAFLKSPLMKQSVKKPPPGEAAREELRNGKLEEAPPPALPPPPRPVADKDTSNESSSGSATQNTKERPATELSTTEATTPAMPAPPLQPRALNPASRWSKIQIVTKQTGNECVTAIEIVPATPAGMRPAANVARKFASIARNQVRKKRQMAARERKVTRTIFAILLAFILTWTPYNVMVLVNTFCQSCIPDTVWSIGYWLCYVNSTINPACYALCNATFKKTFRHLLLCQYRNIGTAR
MEASURE NAME: pKi
Units for pKi: none; it is -log10 of a concentration expressed in mol/L.

// known answers, use as guide
CHEMICAL SMILES | pKi
CCCCCC1CCN(CCCN2C(=O)CCc3ccccc32)CC1 | 6.24
CC1CCN(CCCN2C(=O)CCc3ccccc32)CC1 | 5.03
O=C1CCc2ccccc2N1CCCN1CCN(c2ccccc2)CC1 | 5.03

Turning now to a further molecule:
Task: Respond only with pKi recorded for O=C1CCc2ccccc2N1CCCN1CCC(Cc2ccccc2)CC1
Output: 6.14

* * *

SYSTEM NAME: Muscarinic acetylcholine receptor M4 (Homo sapiens, UniProt P08173)
ASSAY METHOD TEXT: Agonist activity at human SP/Myc epitope-tagged muscarinic M4 receptor expressed in HEK293T cells assessed as RLuc8-fused Galphaq activation after 2 mins by BRET assay
Each record here notes measured EC50.
Please state the figure in µM; there is no need to write the unit.

CHEMICAL SMILES | EC50 / µM
O=C1CCc2ccccc2N1CCCN1CCN(c2ccccc2)CC1 | 0.589

Continue with the compound presented below.
Task: Recall the reported EC50 of O=C1CCc2ccccc2N1CCCN1CCC(Cc2ccccc2)CC1 on Muscarinic acetylcholine receptor M4 (Homo sapiens, UniProt P08173) and write it down.
Output: 0.148

* * *

SYSTEM NAME: D(4) dopamine receptor (Homo sapiens, UniProt P21917)
ASSAY METHOD TEXT: Antagonist activity at human SP/Myc epitope-tagged dopamine D4 receptor expressed in HEK293T cells assessed as inhibition of dopamine-induced RLuc8-fused Galphai1 activation preincubated for 15 mins followed by dopamine induction measured after 2 mins by BRET assay
Assay type: cell-based, HEK-293T
Listed below: pIC50 values for each entry.
Scale explanation: pIC50 corresponds to minus log10 of a concentration expressed in moles per litre.

CHEMICAL SMILES | pIC50
O=C1CCc2ccccc2N1CCCN1CCC(CCCCCO)CC1 | 6.90
O=C1CCc2ccccc2N1CCCN1CCN(c2ccccc2)CC1 | 8.01

Task: Determine from records and report pIC50 for CCCCC1CCN(CCCN2C(=O)CCc3ccccc32)CC1
Output: 6.93

Task: Given the compound O=C1CCc2ccccc2N1CCCN1CCC(Cc2ccccc2)CC1 , write its reported pIC50.
Output: 6.77

* * *

SYSTEM NAME: UniProt P08173
ASSAY METHOD TEXT: Antagonist activity at human SP/Myc epitope-tagged muscarinic M4 receptor expressed in HEK293T cells assessed as inhibition of carbachol-induced RLuc8-fused Galphaq activation preincubated for 15 mins followed by carbachol induction measured after 2 mins by BRET assay
Format: cell-based, HEK-293T
MEASURE NAME: pIC50
Reminder that pIC50 is minus the log10 of a molar concentration.

Task: Specify measured pIC50 for O=C1CCc2ccccc2N1CCCN1CCC(Cc2ccccc2)CC1 .
Output: 5.07

* * *

SYSTEM NAME: Beta-1 adrenergic receptor (Homo sapiens)
Sequence (P08588 whole entry): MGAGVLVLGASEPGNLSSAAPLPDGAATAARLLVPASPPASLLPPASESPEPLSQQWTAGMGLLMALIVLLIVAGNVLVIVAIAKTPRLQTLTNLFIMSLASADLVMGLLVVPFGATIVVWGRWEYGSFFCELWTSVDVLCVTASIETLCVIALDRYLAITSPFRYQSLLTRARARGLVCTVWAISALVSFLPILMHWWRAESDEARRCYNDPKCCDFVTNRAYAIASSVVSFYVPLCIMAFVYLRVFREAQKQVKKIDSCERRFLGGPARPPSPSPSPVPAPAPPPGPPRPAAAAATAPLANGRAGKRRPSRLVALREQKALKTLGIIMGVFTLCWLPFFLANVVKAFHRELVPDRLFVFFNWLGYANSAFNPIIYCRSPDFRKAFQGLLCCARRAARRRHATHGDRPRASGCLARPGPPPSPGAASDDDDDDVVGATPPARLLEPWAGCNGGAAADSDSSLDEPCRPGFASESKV
ASSAY METHOD TEXT: Displacement of [3H]CGP12177 from human recombinant beta1 adrenergic receptor expressed in HEK293 cell membranes after 90 mins by beta counting method
MEASURE NAME: pKi
Note on units: pKi is unitless, being -log10 of a concentration expressed in mol/L.

CHEMICAL SMILES | VALUE MEASURED
O=C1CCc2ccccc2N1CCCN1CCC(Cc2ccccc2)CC1 | 4.99
O=C1CCc2ccccc2N1CCCN1CCN(c2ccccc2)CC1 | 4.49

Next item in the queue.
Task: Provide pKi, system Beta-1 adrenergic receptor (Homo sapiens), entry CCCCC1CCN(CCCN2C(=O)CCc3ccccc32)CC1
Output: 4.32

* * *

SYSTEM NAME: UniProt P25100
Sequence (P25100 whole entry): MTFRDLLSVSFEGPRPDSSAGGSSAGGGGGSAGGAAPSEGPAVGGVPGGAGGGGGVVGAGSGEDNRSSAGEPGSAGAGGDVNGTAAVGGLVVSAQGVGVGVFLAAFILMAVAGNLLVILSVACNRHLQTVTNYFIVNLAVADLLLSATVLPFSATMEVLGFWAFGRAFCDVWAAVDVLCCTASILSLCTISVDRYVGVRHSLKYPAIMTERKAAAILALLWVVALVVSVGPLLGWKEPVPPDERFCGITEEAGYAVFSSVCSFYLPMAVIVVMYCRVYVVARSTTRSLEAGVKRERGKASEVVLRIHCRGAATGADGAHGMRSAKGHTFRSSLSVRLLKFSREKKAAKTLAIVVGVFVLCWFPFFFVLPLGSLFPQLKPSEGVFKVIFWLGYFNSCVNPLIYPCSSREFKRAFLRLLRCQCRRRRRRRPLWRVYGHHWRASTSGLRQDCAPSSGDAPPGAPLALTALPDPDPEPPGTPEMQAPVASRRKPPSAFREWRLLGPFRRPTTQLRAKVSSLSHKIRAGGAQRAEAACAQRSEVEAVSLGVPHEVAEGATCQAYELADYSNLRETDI
ASSAY METHOD TEXT: Displacement of [3H]prazosin from human recombinant alpha-1D adrenergic receptor expressed in CHO cell membranes after 30 mins by liquid scintillation counting method
MEASURE NAME: pKi
pKi here is simply -log10 of the concentration when that concentration is written in mol/L.

Solved entries (count: 2):
CHEMICAL SMILES | pKi
O=C1CCc2ccccc2N1CCCN1CCN(c2ccccc2)CC1 | 7.04
CCCCC1CCN(CCCN2C(=O)CCc3ccccc32)CC1 | 6.00

Consider now this further molecule.
Task: Kindly indicate its recorded pKi. Item: O=C1CCc2ccccc2N1CCCN1CCC(Cc2ccccc2)CC1
Output: 6.52
